Assay: Venous plasma pharmacokinetics of inhaled treprostinil via AERx Essence or Nebu-Tec Optineb, 14 healthy male subjects
Settings: male, human, plasma, inhaled, 19.58 μg, T1/2, via Optineb; Median

Cpd Smiles: CCCCC[C@H](O)CC[C@@H]1[C@H]2Cc3cccc(OCC(=O)[O-])c3C[C@H]2C[C@H]1O.[Na+]
half-life: 37.3 min

* * *

Assay: Venous plasma pharmacokinetics of inhaled treprostinil via AERx Essence or Nebu-Tec Optineb, 14 healthy male subjects
Details: male, human, plasma, inhaled, 2 AERx strips, AUCINF—obs (AUCI), via AERx; Mean

Molecule: CCCCC[C@H](O)CC[C@@H]1[C@H]2Cc3cccc(OCC(=O)[O-])c3C[C@H]2C[C@H]1O.[Na+] [treprostinil]
Quantity Unit: ng·h/mL
AUC(0-inf): 0.762

* * *

Test: Venous plasma pharmacokinetics of inhaled treprostinil via AERx Essence or Nebu-Tec Optineb, 14 healthy male subjects
Conditions: male, human, plasma, inhaled, 26.07 μg, Tmax, via AERx; Median

Compound: CCCCC[C@H](O)CC[C@@H]1[C@H]2Cc3cccc(OCC(=O)[O-])c3C[C@H]2C[C@H]1O.[Na+] [treprostinil]
Tmax, min: 25

* * *

Experiment: Venous plasma pharmacokinetics of inhaled treprostinil via AERx Essence or Nebu-Tec Optineb, 14 healthy male subjects
Conditions: male, human, plasma, inhaled, 19.58 μg, AUCT, via Nebu-Tec; Geometric LS means

Compound: CCCCC[C@H](O)CC[C@@H]1[C@H]2Cc3cccc(OCC(=O)[O-])c3C[C@H]2C[C@H]1O.[Na+] [treprostinil]
Quantity Unit: ng·h/mL
AUC(0-t): 0.51

* * *

Assay: Venous plasma pharmacokinetics of inhaled treprostinil via AERx Essence or Nebu-Tec Optineb, 14 healthy male subjects
Conditions: male, human, plasma, inhaled, 26 μg, Tmax, via AERx; Median
Endpoint Name: Tmax (min)

Compound: CCCCC[C@H](O)CC[C@@H]1[C@H]2Cc3cccc(OCC(=O)[O-])c3C[C@H]2C[C@H]1O.[Na+] [treprostinil]
Endpoint Name: Tmax
Assay Result: 25

* * *

Assay: Venous plasma pharmacokinetics of inhaled treprostinil via AERx Essence or Nebu-Tec Optineb, 14 healthy male subjects
Details: male, human, plasma, inhaled, 6 puffs, AUClast (AUCT), via Optineb; Mean
Endpoint Name: AUC(0-t) (ng·h/mL)

Cpd Smiles: CCCCC[C@H](O)CC[C@@H]1[C@H]2Cc3cccc(OCC(=O)[O-])c3C[C@H]2C[C@H]1O.[Na+]
Quantity Unit: ng·h/mL
Assay Result: 0.531

* * *

Assay: Venous plasma pharmacokinetics of inhaled treprostinil via AERx Essence or Nebu-Tec Optineb, 14 healthy male subjects
Details: male, human, plasma, inhaled, 19.58 μg, Cmax, via Nebu-Tec; Geometric LS means

Cpd Smiles: CCCCC[C@H](O)CC[C@@H]1[C@H]2Cc3cccc(OCC(=O)[O-])c3C[C@H]2C[C@H]1O.[Na+]
Cmax / ng/mL: 0.71

* * *

Assay: Venous plasma pharmacokinetics of inhaled treprostinil via AERx Essence or Nebu-Tec Optineb, 14 healthy male subjects
Details: male, human, plasma, inhaled, 26.07 μg

Cpd Smiles: CCCCC[C@H](O)CC[C@@H]1[C@H]2Cc3cccc(OCC(=O)[O-])c3C[C@H]2C[C@H]1O.[Na+]
AUC (ng·h/mL): 0.73

* * *

Test: Venous plasma pharmacokinetics of inhaled treprostinil via AERx Essence or Nebu-Tec Optineb, 14 healthy male subjects
Conditions: male, human, plasma, inhaled, 6 puffs, T1/2 (elimination half life), via Optineb; Mean
Endpoint Name: half-life (min)

Compound: CCCCC[C@H](O)CC[C@@H]1[C@H]2Cc3cccc(OCC(=O)[O-])c3C[C@H]2C[C@H]1O.[Na+] [treprostinil]
Assay Result: 40.1

* * *

Test: Venous plasma pharmacokinetics of inhaled treprostinil via AERx Essence or Nebu-Tec Optineb, 14 healthy male subjects
Conditions: male, human, plasma, inhaled, 2 AERx strips, Cmax, via AERx; Mean

Cpd Smiles: CCCCC[C@H](O)CC[C@@H]1[C@H]2Cc3cccc(OCC(=O)[O-])c3C[C@H]2C[C@H]1O.[Na+]
Quantity Unit: ng/mL
Cmax: 0.64

* * *

Test: Venous plasma pharmacokinetics of inhaled treprostinil via AERx Essence or Nebu-Tec Optineb, 14 healthy male subjects
Conditions: male, human, plasma, inhaled, 26.07 μg, AUCT, via AERx; Geometric LS means
Endpoint Name: AUC(0-t) (ng·h/mL)

Cpd Smiles: CCCCC[C@H](O)CC[C@@H]1[C@H]2Cc3cccc(OCC(=O)[O-])c3C[C@H]2C[C@H]1O.[Na+]
Assay Result: 0.71

* * *

Assay: Venous plasma pharmacokinetics of inhaled treprostinil via AERx Essence or Nebu-Tec Optineb, 14 healthy male subjects
Settings: male, human, plasma, inhaled, 26 μg, T1/2, via AERx; GM
Endpoint Name: half-life (min)

Cpd Smiles: CCCCC[C@H](O)CC[C@@H]1[C@H]2Cc3cccc(OCC(=O)[O-])c3C[C@H]2C[C@H]1O.[Na+]
Quantity Unit: min
Assay Result: 46.3

* * *

Assay: Venous plasma pharmacokinetics of inhaled treprostinil via AERx Essence or Nebu-Tec Optineb, 14 healthy male subjects
Conditions: male, human, plasma, inhaled, 6 puffs, Cmax, via Optineb; Mean

Cpd Smiles: CCCCC[C@H](O)CC[C@@H]1[C@H]2Cc3cccc(OCC(=O)[O-])c3C[C@H]2C[C@H]1O.[Na+]
Cmax, ng/mL: 0.762

* * *

Experiment: Venous plasma pharmacokinetics of inhaled treprostinil via AERx Essence or Nebu-Tec Optineb, 14 healthy male subjects
Settings: male, human, plasma, inhaled, 26 μg, AUClast, via AERx; Median
Endpoint Name: AUC(0-t)

Cpd Smiles: CCCCC[C@H](O)CC[C@@H]1[C@H]2Cc3cccc(OCC(=O)[O-])c3C[C@H]2C[C@H]1O.[Na+]
Endpoint Name: AUC(0-t)
Assay Result: 0.749 ng·h/mL

* * *

Assay: Venous plasma pharmacokinetics of inhaled treprostinil via AERx Essence or Nebu-Tec Optineb, 14 healthy male subjects
Settings: male, human, plasma, inhaled, 19.58 μg, AUClast, via Optineb; Median

Cpd Smiles: CCCCC[C@H](O)CC[C@@H]1[C@H]2Cc3cccc(OCC(=O)[O-])c3C[C@H]2C[C@H]1O.[Na+]
Quantity Unit: ng·h/mL
AUC(0-t): 0.531

* * *

Experiment: Venous plasma pharmacokinetics of inhaled treprostinil via AERx Essence or Nebu-Tec Optineb, 14 healthy male subjects
Conditions: male, human, plasma, inhaled, 19.58 μg, AUClast, via Optineb; GM

Compound: CCCCC[C@H](O)CC[C@@H]1[C@H]2Cc3cccc(OCC(=O)[O-])c3C[C@H]2C[C@H]1O.[Na+] [treprostinil]
Quantity Unit: ng·h/mL
AUC(0-t): 0.51

* * *

Test: Venous plasma pharmacokinetics of inhaled treprostinil via AERx Essence or Nebu-Tec Optineb, 14 healthy male subjects
Conditions: male, human, plasma, inhaled, 19.58 μg, Cmax, via Optineb; Median
Experimental: On each of two dosing days, eligible subjects underwent dosing with ^99mTc-labeled treprostinil sodium using either the AERx Essence System or the Nebu-Tec Optineb nebulizer. […] To evaluate treprostinil plasma pharmacokinetics, 16 venous blood samples were drawn into 7.5 ml Potassium EDTA monovette tubes following each study dose (i.e., Essence and Optineb). […] The time at which samples were taken, received into the separating room and placed in the freezer was recorded in the study documentation. […]

Molecule: CCCCC[C@H](O)CC[C@@H]1[C@H]2Cc3cccc(OCC(=O)[O-])c3C[C@H]2C[C@H]1O.[Na+] [treprostinil]
Quantity Unit: ng/mL
Cmax: 0.696

* * *

Assay: Venous plasma pharmacokinetics of inhaled treprostinil via AERx Essence or Nebu-Tec Optineb, 14 healthy male subjects
Conditions: male, human, plasma, inhaled, 19.58 μg, Tmax, via Optineb; Median

Cpd Smiles: CCCCC[C@H](O)CC[C@@H]1[C@H]2Cc3cccc(OCC(=O)[O-])c3C[C@H]2C[C@H]1O.[Na+]
Quantity Unit: min
Tmax: 8.52

* * *

Assay: Venous plasma pharmacokinetics of inhaled treprostinil via AERx Essence or Nebu-Tec Optineb, 14 healthy male subjects
Settings: male, human, plasma, inhaled, 19.58 μg, AUCINF—obs, via Optineb; GM
Endpoint Name: AUC(0-inf) (ng·h/mL)

Cpd Smiles: CCCCC[C@H](O)CC[C@@H]1[C@H]2Cc3cccc(OCC(=O)[O-])c3C[C@H]2C[C@H]1O.[Na+]
Assay Result: 0.533

* * *

Test: Venous plasma pharmacokinetics of inhaled treprostinil via AERx Essence or Nebu-Tec Optineb, 14 healthy male subjects
Details: male, human, plasma, inhaled, 2 AERx strips, AUClast (AUCT), via AERx; Mean

Cpd Smiles: CCCCC[C@H](O)CC[C@@H]1[C@H]2Cc3cccc(OCC(=O)[O-])c3C[C@H]2C[C@H]1O.[Na+]
AUC(0-t), ng·h/mL: 0.742

* * *

Assay: Venous plasma pharmacokinetics of inhaled treprostinil via AERx Essence or Nebu-Tec Optineb, 14 healthy male subjects
Conditions: male, human, plasma, inhaled, 6 puffs, AUCINF—obs (AUCI), via Optineb; Mean

Cpd Smiles: CCCCC[C@H](O)CC[C@@H]1[C@H]2Cc3cccc(OCC(=O)[O-])c3C[C@H]2C[C@H]1O.[Na+]
AUC(0-inf), ng·h/mL: 0.553

Numbers sourced from patent US20120177693A1.
